ASSAY PROTOCOL: chemical genetic growth profiling, strain panel (AID 1159580);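 note: tested at 20 µM; growth read once vehicle control cultures reached saturation at 30 °C; 1 = growth at the plate median or of vehicle wells; lower values mean less growth of the strain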
CONDITIONS: S. cerevisiae deletion strains, growth OD, locus YLR357W, strain rsc2, hits give low values
In all, about 5,500 compounds went through this assay and about 2,000 (36%) were called active. Inconclusive results (about 18%) are left out. The list shows a part of the results. Where a SMILES comes first, the peptide text is derived from it. Side-chain parts run from the residue outwards. [ ]: non-standard residue; d: D form. The star is where a group is joined. X1 = CCC(C)C(N)C1=NC(C(=O)*)CS1; Orn = NCCC[CH](N)C(=O)O
# strict inequality: normalized growth < 1 yields Fulfilled, everything else yields Not fulfilled

[[record]]
compound = "CCC(C)C(N)C1=NC(C(=O)NC(CC(C)C)C(=O)NC(CCC(=O)O)C(=O)NC(C(=O)NCCCCC2NC(=O)C(CC(N)=O)NC(=O)C(CC(=O)O)NC(=O)C(Cc3cnc[nH]3)NC(=O)C(Cc3ccccc3)NC(=O)C(C(C)CC)NC(=O)C(CCCN)NC2=O)C(C)CC)CS1 (stereo not drawn) (cyclo(DNK([Ile-Glu-Leu-X1])[Orn]IFH); configuration not given here)"
assigned_category = "Not fulfilled"

[[record]]
compound = "CC1=CC2C(C(C)C)CCC(C)(O)C2CC1 (stereo not given)"
assigned_category = "Not fulfilled"

[[record]]
compound = "CC(=O)OCC(=O)[C@@]1(O)CCC2C3CCC4=CC(=O)CC[C@]4(C)C3[C@@H](O)C[C@@]21C (stereo not given in full)"
assigned_category = "Not fulfilled"

[[record]]
compound = "CC(C)CC1NC(=O)C(CCCN)NC(=O)C(C(C)C)NC(=O)C2CCCN2C(=O)C(Cc2ccccc2)NC(=O)C(CC(C)C)NC(=O)C(CCCN)NC(=O)C(C(C)C)NC(=O)C2CCCN2C(=O)C(Cc2ccccc2)NC1=O (stereo not given) (cyclo(FPV[Orn]LFPV[Orn]L); configuration not given here)"
assigned_category = "Fulfilled"


###

ASSAY PROTOCOL: chemical genetic growth profiling, strain panel (AID 1159580)
CONDITIONS: S. cerevisiae deletion strains, growth OD, locus YNL248C, strain rpa49, hits give low values
Screen size: about 5,500 compounds; about 2,000 (36%) were called active. Not shown: some 18% with an inconclusive outcome. Some of the results follow. Where a SMILES comes first, the peptide text is derived from it. Side-chain parts run from the residue outwards. [ ]: non-standard residue; d: D form. The star is where a group is joined. X1 = CCC(C)C(N)C1=NC(C(=O)*)CS1; Orn = NCCC[CH](N)C(=O)O
Reported normalized growth values follow for various compounds
ATTRIBUTE MEASURED: normalized growth

[[record]]
compound = "CCC(C)C(N)C1=NC(C(=O)NC(CC(C)C)C(=O)NC(CCC(=O)O)C(=O)NC(C(=O)NCCCCC2NC(=O)C(CC(N)=O)NC(=O)C(CC(=O)O)NC(=O)C(Cc3cnc[nH]3)NC(=O)C(Cc3ccccc3)NC(=O)C(C(C)CC)NC(=O)C(CCCN)NC2=O)C(C)CC)CS1 (stereo not drawn) (cyclo(DNK([Ile-Glu-Leu-X1])[Orn]IFH); configuration not given here)"
endpoint_result = 0.998

[[record]]
compound = "CC(=O)Oc1ccccc1C(=O)O"
endpoint_result = 0.956

[[record]]
compound = "CCCCCCCCCCCCCCCCCCOCC(O)CO (stereo not given)"
endpoint_result = 1.01

[[record]]
compound = "COc1cc(NS(=O)(=O)c2ccc(N)cc2)ncn1"
endpoint_result = 0.931

[[record]]
compound = "OC(c1cc(C(F)(F)F)nc2c(C(F)(F)F)cccc12)C1CCCCN1 (stereo not given)"
endpoint_result = 0.999

[[record]]
compound = "CCc1cccc2c3c([nH]c12)C(CC)(CC(=O)O)OCC3 (stereo not given)"
endpoint_result = 0.981

[[record]]
compound = "CN[C@@H]1[C@@H](O[C@H]2O[C@H](CO)[C@@H](N)[C@H](O)[C@H]2O)O[C@H]2C[C@@H](N)[C@H](O[C@H]3[C@H](O)[C@@H](O)[C@H](N)C[C@@H]3N)O[C@@H]2[C@@H]1O"
endpoint_result = 0.999

[[record]]
compound = "Cc1cc(=O)n(-c2ccccc2)n1C"
endpoint_result = 0.952

[[record]]
compound = "NC(=O)N1c2ccccc2C=Cc2ccccc21"
endpoint_result = 1.05

[[record]]
compound = "NC[C@H]1O[C@H](O[C@H]2C(O[C@@H]3O[C@H](CO)[C@@H](O)[C@H]3O)[C@@H](O)[C@H](N)C[C@@H]2N)[C@H](N)[C@@H](O)[C@@H]1O (stereo not given in full)"
endpoint_result = 1.01


###

ASSAY PROTOCOL: chemical genetic growth profiling, strain panel (AID 1159580);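 note: tested at 20 µM; growth read once vehicle control cultures reached saturation at 30 °C; 1 = growth at the plate median or of vehicle wells; lower values mean less growth of the strain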
CONDITIONS: S. cerevisiae deletion strains, growth OD, locus YPR111W, strain DBF20, hits give low values
In all, about 5,500 compounds went through this assay and about 2,000 (36%) were called active. Roughly 18% stayed inconclusive and do not appear here. The list shows a part of the results.
Reported normalized growth values follow for various molecules
ATTRIBUTE MEASURED: normalized growth

[[record]]
molecule_smiles = "O=c1c(-c2ccccc2)c(O)c2cccc3c4c(n1c23)CCCC4"
attribute_measured = "normalized growth"
endpoint_result = 0.94

[[record]]
molecule_smiles = "Clc1ccc(N/N=C\\c2sccc2Oc2ccccc2)cc1"
attribute_measured = "normalized growth"
endpoint_result = 0.963

[[record]]
molecule_smiles = "S=C(Nc1ccc(Cl)cc1)Nc1ccc(Cl)cc1"
attribute_measured = "normalized growth"
endpoint_result = 0.931


###

ASSAY PROTOCOL: chemical genetic growth profiling, strain panel (AID 1159580);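 note: tested at 20 µM; growth read once vehicle control cultures reached saturation at 30 °C; 1 = growth at the plate median or of vehicle wells; lower values mean less growth of the strain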
CONDITIONS: S. cerevisiae deletion strains, growth OD, locus YNL209W, strain ssb2
Out of some 5,500 compounds screened, about 2,000 (36%) were called active. Not shown: some 18% with an inconclusive outcome. Rule as the data show it: active = normalized growth mostly below about 0.91 (no sharp cut-off); inconclusive = no clear call, values can overlap the other calls; inactive = mostly above about 0.92. Some of the results follow.
Labels: true (1) (active), false (0) (inactive)

[[record]]
compound = "c1ccc2c(Cc3c[nH]c4ccccc34)c[nH]c2c1"
assigned_category = "true (1)"

[[record]]
compound = "NCCc1c[nH]c2ccccc12"
assigned_category = "false (0)"

[[record]]
compound = "CC1(C)S[C@@H]2[C@H](NC(=O)Cc3ccccc3)C(=O)N2[C@H]1C(=O)O"
assigned_category = "false (0)"

[[record]]
compound = "CNS(=O)(=O)c1ccc(NC(=O)c2ccccc2C(=O)O)cc1"
assigned_category = "false (0)"

[[record]]
compound = "COc1cc(/C=C/C(=O)N2CCC=CC2=O)cc(OC)c1OC"
assigned_category = "false (0)"

[[record]]
compound = "O=c1oc2c(O)c(O)cc3c(=O)oc4c(O)c(O)cc1c4c23"
assigned_category = "true (1)"

[[record]]
compound = "CCc1cccc2c3c([nH]c12)C(CC)(CC(=O)O)OCC3 (centres undefined)"
assigned_category = "false (0)"

[[record]]
compound = "C=C(C)[C@@H]1CC[C@]2(CO)CC[C@]3(C)[C@H](CCC4[C@@]5(C)CC[C@H](O)C(C)(C)C5CC[C@]43C)C12 (some centres undefined)"
assigned_category = "false (0)"

[[record]]
compound = "CC(=O)NS(=O)(=O)c1ccc(NC(=O)c2ccccc2C(=O)O)cc1"
assigned_category = "false (0)"

[[record]]
compound = "Cc1onc(-c2ccccc2)c1C(=O)NC1C(=O)N2[C@@H]1SC(C)(C)[C@@H]2C(=O)O (some centres undefined)"
assigned_category = "false (0)"

[[record]]
compound = "Cc1onc(-c2c(Cl)cccc2Cl)c1C(=O)N[C@@H]1C(=O)N2[C@@H]1SC(C)(C)[C@@H]2C(=O)O"
assigned_category = "false (0)"

[[record]]
compound = "O=C(CCc1ccc(O)cc1)c1c(O)cc(O)cc1O[C@@H]1O[C@H](CO)[C@@H](O)[C@H](O)[C@H]1O"
assigned_category = "false (0)"

[[record]]
compound = "Cc1onc(-c2ccccc2Cl)c1C(=O)N[C@@H]1C(=O)N2[C@@H]1SC(C)(C)[C@@H]2C(=O)O"
assigned_category = "false (0)"

[[record]]
compound = "COC(=O)C[C@H]1C(C)(C)[C@@H](O)[C@@H]2CC3=C4C=C(OC)O[C@@H](c5ccoc5)[C@]4(C)CCC3[C@@]1(C)C2=O (some centres undefined)"
assigned_category = "false (0)"


###

ASSAY PROTOCOL: chemical genetic growth profiling, strain panel (AID 1159580);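 note: tested at 20 µM; growth read once vehicle control cultures reached saturation at 30 °C; 1 = growth at the plate median or of vehicle wells; lower values mean less growth of the strain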
CONDITIONS: S. cerevisiae deletion strains, growth OD, locus YJL154C, strain vps35, hits give low values
Out of some 5,500 compounds screened, about 2,000 (36%) were called active. Not shown: some 18% with an inconclusive outcome. The list shows a part of the results.
Reported normalized growth values follow for various compounds
ATTRIBUTE MEASURED: normalized growth

[[record]]
compound = "COc1c2c(cc3c1OCO3)C13C=C[C@H](OC)CC1N(C2)CC3O (stereo partly specified)"
endpoint_result = "0.977 (inactive)"

[[record]]
compound = "CC(=O)Oc1ccccc1C(=O)O"
endpoint_result = "0.989 (inactive)"

[[record]]
compound = "Cc1cc(C(C)(C)C)cc(C)c1CC1=NCCN1"
endpoint_result = "1.01 (inactive)"

[[record]]
compound = "CCNc1nc(Cl)nc(NCC)n1"
endpoint_result = "0.992 (inactive)"

[[record]]
compound = "CN(C)C(=N)N=C(N)N"
endpoint_result = "1 (inactive)"

[[record]]
compound = "CC[C@H]1OC(=O)[C@H](C)[C@@H](O[C@H]2C[C@@](C)(OC)[C@@H](O)[C@H](C)O2)[C@H](C)[C@@H](O[C@@H]2O[C@H](C)C[C@H](N(C)C)[C@H]2O)[C@](C)(O)C[C@@H](C)[C@@H]2N[C@@H](COCCOC)O[C@H]([C@H]2C)[C@]1(C)O"
endpoint_result = "0.993 (inactive)"

